All values here come from patent US20250136606A1.

I'd appreciate it if you could supply EC50 values for the items below.
Measured target: TRPML3 (Homo sapiens)
Construct: expressed in transfected cells
Sequence (Q8TDD5 1-553): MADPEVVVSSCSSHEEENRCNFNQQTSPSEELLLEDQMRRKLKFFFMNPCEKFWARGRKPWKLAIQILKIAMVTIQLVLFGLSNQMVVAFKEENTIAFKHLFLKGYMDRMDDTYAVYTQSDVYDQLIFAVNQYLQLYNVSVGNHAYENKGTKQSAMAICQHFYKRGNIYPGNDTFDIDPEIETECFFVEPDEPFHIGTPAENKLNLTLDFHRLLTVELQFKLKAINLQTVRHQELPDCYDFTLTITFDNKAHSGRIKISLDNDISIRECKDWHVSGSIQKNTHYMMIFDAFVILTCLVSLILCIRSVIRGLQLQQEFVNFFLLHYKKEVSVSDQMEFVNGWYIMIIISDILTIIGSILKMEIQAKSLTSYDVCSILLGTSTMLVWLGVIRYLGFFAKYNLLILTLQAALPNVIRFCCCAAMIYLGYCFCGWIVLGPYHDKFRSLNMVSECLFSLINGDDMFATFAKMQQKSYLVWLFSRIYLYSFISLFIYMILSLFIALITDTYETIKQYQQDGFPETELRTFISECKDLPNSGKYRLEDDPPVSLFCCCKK
Test: Fluorescent TRPML3 assay (performed as for TRPML1, substituting the TRPML3 subtype)
Assay type: cell-based
Method: HEK-293 Trex cells were stably transfected with a construct consisting of the human coding sequence for TRPML1 cloned into the […] plasmid pCDNA5 T/O. Mutations were introduced into the TRPML1 sequence to facilitate expression on the cell surface (Silvia Vergarajauregui, Rosa Puertollano, Traffic. 2006 March; 7(3): 337-353). […] The Trypsin-EDTA is diluted with growth media, and cells are counted. […] EC50 values were calculated using a non-linear regression of Prism. […]

Example molecules with recorded EC50:
{"Compound structure string": "C[C@H]1CN(C(=O)OC(C)(C)C)CCN1c1ncnc2c1c(N1CCC1)cn2-c1cc(F)cc(F)c1", "Measured target": "TRPML3 (Homo sapiens)", "Data value": "< 100 nM"}
{"Compound structure string": "C[C@H]1CN(C(=O)OC(C)(C)C)CCN1c1ncnc2c1c(N1CCCC1)cn2[C@H]1CCC[C@@H](C#N)C1", "Measured target": "TRPML3 (Homo sapiens)", "Data value": "100 to 500 nM"}

// next item, EC50 requested
Tested on TRPML3 (Homo sapiens), the item C[C@@H]1CN(c2ncnc3c2c(C2CCC2)cn3-c2cc(F)cc(F)c2)[C@@H](C)CN1C(=O)OC(C)(C)C showed EC50 equal to 100 to 500 nM

---

I'd appreciate it if you could supply EC50 values for the items below.
Measured target: TRPML2 (Homo sapiens)
Construct: expressed in transfected cells
Sequence (Q8IZK6 1-566): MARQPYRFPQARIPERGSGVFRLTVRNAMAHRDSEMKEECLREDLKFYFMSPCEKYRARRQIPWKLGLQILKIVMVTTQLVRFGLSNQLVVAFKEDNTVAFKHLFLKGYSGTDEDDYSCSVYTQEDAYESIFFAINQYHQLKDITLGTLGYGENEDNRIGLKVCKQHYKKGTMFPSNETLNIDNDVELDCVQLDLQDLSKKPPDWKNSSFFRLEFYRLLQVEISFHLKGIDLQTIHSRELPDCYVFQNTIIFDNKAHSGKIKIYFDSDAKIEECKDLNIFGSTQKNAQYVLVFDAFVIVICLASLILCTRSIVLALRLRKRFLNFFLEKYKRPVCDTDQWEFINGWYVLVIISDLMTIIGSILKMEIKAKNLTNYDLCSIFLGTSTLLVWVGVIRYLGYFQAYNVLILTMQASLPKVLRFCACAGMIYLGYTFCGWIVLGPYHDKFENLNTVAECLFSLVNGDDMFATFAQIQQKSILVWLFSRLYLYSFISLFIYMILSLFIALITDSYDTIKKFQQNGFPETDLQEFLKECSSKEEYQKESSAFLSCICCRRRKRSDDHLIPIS
Test: Fluorescent TRPML2 assay (performed as for TRPML1, substituting the TRPML2 subtype)
Assay type: cell-based

Example compounds with recorded EC50:
{"Compound structure string": "C[C@@H]1CN(c2ncnc3c2c(C2CC2)cn3-c2ccccn2)[C@@H](C)CN1C(=O)OC(C)(C)C", "Data value": "500 to 2000 nM"}
{"Compound structure string": "CCc1cn(-c2cc(C(F)(F)F)ccn2)c2ncnc(N3C[C@@H](C)N(C(=O)OC(C)(C)C)C[C@@H]3C)c12", "Data value": "< 100 nM"}
{"Compound structure string": "C[C@H]1CN(C(=O)OC(C)(C)C)CCN1c1ncnc2c1c(N1CCCC1)cn2[C@H]1CCC[C@@H](C#N)C1", "Data value": "> 2000 nM"}

# per-item lookup of EC50; items listed below
1. Cc1cn(-c2cc(F)cc(Cl)c2)c2ncnc(N3C[C@@H](C)N(C(=O)OC(C)(C)C)C[C@@H]3C)c12
2. CCC(CC)OC(=O)N1C[C@H](C)N(c2ncnc3c2c(C(F)(F)F)cn3-c2cc(C#N)ccn2)C[C@H]1C

1. 100 to 500 nM
2. 100 to 500 nM

---

I'd appreciate it if you could supply pEC50 values for the items below.
Measured target: TRPML1 (Homo sapiens, UniProt Q9GZU1)
Sequence (Q9GZU1 whole entry L15A/L16A/L577A/L578A, form open): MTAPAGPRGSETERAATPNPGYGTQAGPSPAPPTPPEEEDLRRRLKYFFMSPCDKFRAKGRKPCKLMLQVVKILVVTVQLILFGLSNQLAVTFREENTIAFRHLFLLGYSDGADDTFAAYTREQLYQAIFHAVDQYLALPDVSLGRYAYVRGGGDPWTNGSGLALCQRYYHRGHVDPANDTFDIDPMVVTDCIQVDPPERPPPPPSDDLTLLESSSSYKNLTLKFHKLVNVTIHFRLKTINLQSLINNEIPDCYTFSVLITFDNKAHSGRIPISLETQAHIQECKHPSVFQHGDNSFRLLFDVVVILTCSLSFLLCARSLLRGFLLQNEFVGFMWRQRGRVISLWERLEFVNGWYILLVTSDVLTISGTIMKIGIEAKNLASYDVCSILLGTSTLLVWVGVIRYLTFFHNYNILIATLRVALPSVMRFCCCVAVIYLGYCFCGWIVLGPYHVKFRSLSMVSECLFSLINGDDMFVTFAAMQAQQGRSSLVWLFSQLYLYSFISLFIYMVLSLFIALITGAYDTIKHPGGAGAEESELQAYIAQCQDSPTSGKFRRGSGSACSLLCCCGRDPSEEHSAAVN
Test: Fluorescent TRPML1 assay (Fluo4-AM calcium fluorescence in doxycycline-induced HEK-293 Trex cells)
Assay type: cell-based
Test context: fluorescent calcium assay
pEC50: −log10 of the molar value.

{"Compound structure string": "CCN(CC)c1cn(-c2cc(C#N)ccn2)c2ncnc(N3CCN(C(=O)OC(C)(C)C(F)(F)F)C[C@@H]3C)c12", "Measured target": "TRPML1 (Homo sapiens, UniProt Q9GZU1)", "pEC50": "> 7.00"}
{"Compound structure string": "C[C@H]1CN(C(=O)OC(C)(C)C)CCN1c1ncnc2c1c(N1CCCC1)cn2-c1cc(C#N)ccn1", "Measured target": "TRPML1 (Homo sapiens, UniProt Q9GZU1)", "pEC50": "> 7.00"}
{"Compound structure string": "C[C@H]1CN(C(=O)OC(C)(C)C)CCN1c1ncnc2c1c(C1CC1)cn2-c1cc(F)ccc1F", "Measured target": "TRPML1 (Homo sapiens, UniProt Q9GZU1)", "pEC50": "> 7.00"}

# per-item lookup of pEC50; items listed below
1. COC(=O)N1CCN(c2ncnc3c2c(-c2ccccc2F)cn3-c2cc(C#N)ccn2)[C@@H](C)C1
2. C[C@H]1CN(C(=O)OC(C)(C)C(F)(F)F)CCN1c1ncnc2c1c(-c1cnn(C)c1)cn2-c1cccc(C#N)c1
3. Cc1nccnc1-c1cn(-c2cccc(Cl)c2)c2ncnc(N3C[C@@H](C)N(C(=O)OC(C)(C)C)C[C@@H]3C)c12
4. CCc1nccnc1-c1cn(-c2cccc(Cl)c2)c2ncnc(N3CCN(C(=O)OC(C)(C)C)C[C@@H]3C)c12
5. C[C@H]1CN(C(=O)OC(C)(C)C(F)(F)F)CCN1c1ncnc2c1c(C1CCC1)cn2-c1cc(C#N)ccn1
6. CC(C)N(C)c1cn(-c2cc(C#N)ccn2)c2ncnc(N3CCN(C(=O)OC(C)(C)C)C[C@@H]3C)c12
7. COc1cccc(-n2cc(C3CC3)c3c(N4CCN(C(=O)OC(C)(C)C)C[C@@H]4C)ncnc32)c1
8. C[C@H]1CN(C(=O)OC(C)(C)C)CCN1c1ncnc2c1c(N1CCC(F)(F)C1)cn2-c1cccc(Cl)c1

1: > 7.00; 2: 5.70 to 6.30; 3: > 7.00; 4: 6.30 to 7.00; 5: > 7.00; 6: > 7.00; 7: 6.30 to 7.00; 8: > 7.00

Form: molecule = CC(C)(C)OC(=O)N1CCN(c2nccc3c2c(-c2ccccc2F)cn3-c2cncnc2)CC1 ; pEC50 = 5.70 to 6.30

---

Measured target: TRPML2 (Homo sapiens, UniProt Q8IZK6)
Construct: expressed in transfected cells
Test: Fluorescent TRPML2 assay (performed as for TRPML1, substituting the TRPML2 subtype)
Assay type: cell-based
Test context: fluorescent calcium assay
Description: HEK-293 Trex cells were stably transfected with a construct consisting of the human coding sequence for TRPML1 cloned into the […] plasmid pCDNA5 T/O. Mutations were introduced into the TRPML1 sequence to facilitate expression on the cell surface (Silvia Vergarajauregui, Rosa Puertollano, Traffic. 2006 March; 7(3): 337-353). […] The Trypsin-EDTA is diluted with growth media, and cells are counted. […] EC50 values were calculated using a non-linear regression of Prism. […]
pEC50: −log10 of the molar value.
Observable: pEC50

{"Compound": "C[C@H]1CN(C(=O)OC(C)(C)C)CCN1c1ncnc2c1c(-c1cnn(C)c1)cn2-c1cccc(OC(F)(F)F)c1 [Compound 321]", "pEC50": "< 5.70"}
{"Compound": "C[C@@H]1CN(c2ncnc3c2c(-c2ccccc2)cn3-c2cccnc2)[C@@H](C)CN1C(=O)OC(C)(C)C [Compound 169]", "pEC50": "5.70 to 6.30"}
{"Compound": "CC(C)(C)OC(=O)N1CCN(c2ncnc3c2c(-c2cccnc2)cn3-c2cccc(Cl)c2)CC1 [Compound 102]", "pEC50": "6.30 to 7.00"}
{"Compound": "C[C@@H]1CN(c2ncnc3c2c(N2CCCC2)cn3-c2cc(F)cc(F)c2)CCN1C(=O)OC(C)(C)C [Compound 245]", "pEC50": "5.70 to 6.30"}
{"Compound": "C[C@H]1CN(C(=O)OC(C)(C)C(F)(F)F)CCN1c1ncnc2c1c(C1CC1)cn2-c1ccc(Cl)cc1 [Compound 148]", "pEC50": "6.30 to 7.00"}

// next item, pEC50 requested
Form: compound = C[C@H]1CN(C(=O)OC(C)(C)C(F)(F)F)CCN1c1ncnc2c1c(-c1cncnc1)cn2-c1cc(C#N)ccn1 [Compound 335] ; pEC50 = 5.70 to 6.30
